Experiment: solvent given as SMILES
Details: in CCC(C)=O
Would you please tag the item 1.0 when its solvation free energy, 298 K is -4 kcal/mol or above, and 0.0 when it is below?

>>> category("CCCCC")
1.0
>>> category("C=CC(C)C")
1.0
>>> category("CCCCl")
1.0
>>> category("CC(C)C(C)C(C)C")
0.0
>>> category("CI")
1.0
>>> category("c1ccc2cc3ccccc3cc2c1")
0.0
>>> category("CCCCCCCCCCCCCCCCCCCCCC")
0.0
>>> category("CN(C)C=O")
0.0
>>> category("CCCCCCCCCCCCCCCCCCCC")
0.0
>>> category("CCO")
0.0
>>> category("CCCCCCC")
0.0
>>> category("CCC(C)O (stereo unspecified)")
0.0
>>> category("CC#N")
0.0
>>> category("CC(C)CCC(C)C")
0.0
>>> category("CCOC(C)=O")
0.0
>>> category("CCCCC1CCCCC1")
0.0
>>> category("C=C(C)CC(C)(C)C")
0.0
>>> category("CCCCCC")
1.0
>>> category("CCCCCCCCC")
0.0

----------
Experiment: solvent given as SMILES
Conditions: in Cc1ccc(C)cc1
Assign classes using reported solvation free energy, 298 K values and the ranges bin A (below -6 kcal/mol), bin B (-6 kcal/mol to below -3 kcal/mol), bin C (-3 kcal/mol or more), please.

>>> category("Oc1ccc(Cl)cc1")
"bin A"
>>> category("CC(C)=O")
"bin B"
>>> category("CC(C)(c1ccc(O)cc1)c1ccc(O)cc1")
"bin A"
>>> category("C=CC")
"bin C"
>>> category("CCCCCC")
"bin B"
>>> category("CCI")
"bin B"
>>> category("C[N+](=O)[O-]")
"bin B"
>>> category("CCCCC")
"bin B"
>>> category("CCC(C)O (stereo not drawn)")
"bin B"
>>> category("CCO")
"bin B"
>>> category("CC(C)C(C)C(C)C")
"bin B"
>>> category("FC(F)(F)F")
"bin C"
>>> category("C=CC(C)C")
"bin B"
>>> category("Oc1ccc(Cl)cc1Cl")
"bin A"
>>> category("CC(F)F")
"bin C"
>>> category("C=C(C)C")
"bin C"
>>> category("c1ccc2ccccc2c1")
"bin A"
>>> category("CCCCCCCC")
"bin B"
>>> category("Oc1cccc(O)c1")
"bin A"
>>> category("CI")
"bin B"
>>> category("CCCCCCC")
"bin B"
>>> category("CCCCl")
"bin B"
>>> category("Oc1ccccc1")
"bin A"
>>> category("CC(C)CCC(C)C")
"bin B"
>>> category("C#C")
"bin C"
>>> category("c1ccc2cc3ccccc3cc2c1")
"bin A"
>>> category("Oc1ccccc1O")
"bin A"
>>> category("Cc1ccc(C)c(O)c1")
"bin A"
>>> category("CCOC(C)=O")
"bin B"
>>> category("c1cc2ccc3cccc4ccc(c1)c2c34")
"bin A"
>>> category("CC#N")
"bin B"

----------
Experiment: solvent given as SMILES
Settings: in CCCOCCO
The label is Yes for solvation free energy, 298 K below -10 kcal/mol and No for solvation free energy, 298 K equal to or exceeding -10 kcal/mol.

>>> category("NC(=O)c1ccccc1O")
"Yes"
>>> category("c1ccc(-c2ccccc2)cc1")
"No"
>>> category("c1ccc2cc3ccccc3cc2c1")
"Yes"
>>> category("c1cc2ccc3cccc4ccc(c1)c2c34")
"Yes"
>>> category("COc1ccc(C(=O)O)cc1")
"Yes"

----------
Assay: solvent given as SMILES
Details: in COCCO
measure name: solvation free energy, 298 K (kcal/mol)

>>> recorded_number("CCCCCCCCC")
-4.28
>>> recorded_number("CCc1ccccc1")
-5.05
>>> recorded_number("c1cc2ccc3cccc4ccc(c1)c2c34")
-12.2
>>> recorded_number("CC(C)C(C)C(C)C")
-3.52
>>> recorded_number("CC(C)CCC(C)C")
-3.43
>>> recorded_number("CCCCCC")
-2.7
>>> recorded_number("C[N+](=O)[O-]")
-5
>>> recorded_number("Cc1ccc(C(C)C)cc1")
-5.72
>>> recorded_number("C1CCCCCCC1")
-4.52
>>> recorded_number("CCCCC")
-2.16
>>> recorded_number("CCCCCCCC")
-3.76
>>> recorded_number("CCCCCCC")
-3.24
>>> recorded_number("c1ccc2cc3ccccc3cc2c1")
-10.8
>>> recorded_number("CCO")
-4.79

----------
Experiment: solvent given as SMILES
Details: in CCCCCCCCC
measure name: solvation free energy, 298 K (kcal/mol)

>>> recorded_number("CCCCCCC")
-4.57
>>> recorded_number("FC(F)(F)F")
0.8
>>> recorded_number("CC(C)CCC(C)C")
-4.79
>>> recorded_number("C=CC")
-1.7
>>> recorded_number("CCCCCC")
-3.86
>>> recorded_number("CCCCC")
-3.18
>>> recorded_number("FC(F)(Cl)Cl")
-1.68
>>> recorded_number("CCCCCCCC")
-5.23
>>> recorded_number("CC(F)F")
-1.08
>>> recorded_number("FCF")
-0.37
>>> recorded_number("C=C(C)C")
-2.39
>>> recorded_number("FC(F)(F)Cl")
-0.46
>>> recorded_number("CC(C)C(C)C(C)C")
-4.87
>>> recorded_number("FC(F)C(F)(F)F")
-0.39

----------
Assay: solvent given as SMILES
Conditions: in CC(C)O
Listing: solvation free energy, 298 K of selected molecules
measure name: solvation free energy, 298 K

>>> result("OCC(O)C(O)C(O)CO (stereo not drawn)")
"-13.4 kcal/mol"
>>> result("c1ccncc1")
"-5.27 kcal/mol"
>>> result("CCCCCCCC")
"-4.4 kcal/mol"
>>> result("Nc1ccc(C(=O)O)cc1")
"-14.2 kcal/mol"
>>> result("c1ccc2ccccc2c1")
"-6.9 kcal/mol"
>>> result("C[N+](=O)[O-]")
"-3.92 kcal/mol"
>>> result("O=[N+]([O-])c1cccc2ccccc12")
"-9.78 kcal/mol"
>>> result("c1ccc2cc3ccccc3cc2c1")
"-10 kcal/mol"
>>> result("CCI")
"-3.56 kcal/mol"
>>> result("CC(C)C(C)C(C)C")
"-4.09 kcal/mol"
>>> result("CCCCC")
"-2.6 kcal/mol"
>>> result("O=[N+]([O-])c1ccc(Cl)c(Cl)c1")
"-8.04 kcal/mol"
>>> result("C=C(C)C")
"-1.98 kcal/mol"
>>> result("Cc1cc(C)c(C)cc1C")
"-6.49 kcal/mol"
>>> result("CCc1ccc2c(c1)C(=O)c1ccccc1C2=O")
"-12.1 kcal/mol"
>>> result("O=C(O)CCC(=O)O")
"-12.3 kcal/mol"
>>> result("CCC(C)O (stereo not drawn)")
"-5.61 kcal/mol"
>>> result("c1ccc2c(c1)Sc1ccccc1S2")
"-11 kcal/mol"

----------
Assay: solvent given as SMILES
Conditions: in OCCOCCOCCO
measure name: solvation free energy, 298 K (kcal/mol)

>>> recorded_number("C=C(C)CC(C)(C)C")
-2.29
>>> recorded_number("C[N+](=O)[O-]")
-4.01
>>> recorded_number("CCCCCCC")
-1.97
>>> recorded_number("CCCCCC")
-1.54
>>> recorded_number("CCc1ccccc1")
-4.31
>>> recorded_number("CC(C)c1ccccc1")
-4.56
>>> recorded_number("CCCCCCCCC")
-2.92
>>> recorded_number("CCO")
-4.17

----------
Assay: solvent given as SMILES
Details: in CCCC(C)O
For each record, check the reported solvation free energy, 298 K: if it is below -8 kcal/mol write Yes, else write No.

>>> category("O=C(O)c1cccc([N+](=O)[O-])c1")
"Yes"
>>> category("O=C(O)c1ccc(Cl)c([N+](=O)[O-])c1")
"Yes"
>>> category("CC(F)F")
"No"
>>> category("Brc1ccc(Br)cc1")
"No"
>>> category("COc1ccc(C(=O)O)cc1")
"Yes"
>>> category("c1ccc(-c2ccccc2)cc1")
"Yes"
>>> category("C=C(C)C")
"No"
>>> category("Nc1ccc(C(=O)O)cc1")
"Yes"
>>> category("CCCCCCC")
"No"
>>> category("O=S(=O)(c1ccccc1)c1ccccc1")
"Yes"

----------
Assay: solvent given as SMILES
Details: in CC(C)O
just bin them by solvation free energy, 298 K: 1 (below -10 kcal/mol), 2 (-10 kcal/mol to below -4 kcal/mol), 3 (-4 kcal/mol or more)

>>> category("CC(=O)CC(C)=O")
2
>>> category("CC(C)c1ccccc1")
2
>>> category("O=S(=O)(c1ccccc1)c1ccccc1")
1
>>> category("NC(=O)c1ccccc1O")
1
>>> category("CCCCCC")
3
>>> category("CCO")
2
>>> category("O=C(O)c1cccc([N+](=O)[O-])c1C(=O)O")
1
>>> category("CC(F)F")
3
>>> category("O=C(Oc1ccccc1)Oc1ccccc1")
1
